study-system: Neuropilin-1 (Homo sapiens)
test-description: NRP-1/CendR peptide interaction modulators – biochemical, fluorescence polarization, uHTS, primary screen (AID 602438)
test-parameters: FAM-RPARPAR peptide binding to NRP-1, fluorescence polarization; at 25 µM; hits give high values
Hit rate of the full screen: of about 360,000 compounds, about 3,100 (0.86%) were called active. Only a selection was taken, and actives are over-represented in it overall.
# inhibition >= 10% gives fulfilled, anything below gives not fulfilled

| compound | category |
| --- | --- |
| O=C(CN(C(=O)c1csnn1)c1ccc(Br)cc1)NC1CCCC1 | not fulfilled |

Identify whether the reported inhibition of the following compound is 10% or greater: "Cn1c(N)c(C(=O)COC(=O)/C=C/c2cccc(C(F)(F)F)c2)c(=O)n(C)c1=O"
not fulfilled

Does the compound "Cc1cc(C)cc(N(CC(=O)N2CC=C(c3ccccc3)CC2)S(=O)(=O)c2c(C)noc2C)c1" have recorded inhibition that is 10% or more?
not fulfilled

# check: inhibition of Cc1coc2c(O)cc3c(c12)OC1(N2CCCCC2)C(=O)NCCCC31 (centres undefined) is greater than or equal to 10%
fulfilled

Does the reported inhibition for "Cc1ccccc1NC(=O)c1cc(S(=O)(=O)N2CCOCC2)cs1" fall at or above the 10% mark?
fulfilled

Reported inhibition at or above 10%? "CN(C)C(=S)N=c1ssc(=S)n1Cc1ccco1"
not fulfilled

Quick check, inhibition >= 10%? O=C1Nc2ccccc2-n2nnnc2C1N1CCN(c2cccc(C(F)(F)F)n2)CC1 (centres undefined)
not fulfilled

Quick check, inhibition >= 10%? "COc1ccc(-c2nonc2NC(=O)c2oc3ccc(F)cc3c2C)cc1OC"
fulfilled

I'd appreciate it if you could say whether "Cc1ccc2c(c1)N(CCCC(=O)NCc1cccnc1)C(=O)CO2" has inhibition at least equal to 10%.
fulfilled

Given "Cc1ccc(CN(CC(=O)NC2CCCCC2)C(=O)c2csnn2)cc1" , state whether its inhibition is at least 10%.
fulfilled

For this compound, is measured inhibition 10% or higher? CCCC(C(=O)n1nc(C)cc1C)C(NS(=O)(=O)c1ccc(C)cc1)c1ccccc1 (centres undefined)
not fulfilled

Determine whether this compound has inhibition no lower than 10%: "Cc1cc(=O)[nH]c(SCc2ccc(Cl)cc2)n1"
fulfilled

Quick check, inhibition >= 10%? "O=C1c2ccccc2C(=O)C1c1ccccc1"
not fulfilled

Confirm if inhibition reported for the compound "O=C(Cc1ccc(S(=O)(=O)N2CCOCC2)s1)N1CCN(c2ccc(C(F)(F)F)cc2[N+](=O)[O-])CC1" is 10% or above.
fulfilled

State whether the measured inhibition reaches 10%, counting equality as reaching it, for "CCOC(=O)/C=C/c1ccc(C(F)(F)F)cc1S(=O)(=O)NC(C)(C)C"
fulfilled

Quick check, inhibition >= 10%? CC1=NN(C(=O)c2ccccc2Br)C(O)(c2cccnc2)C1 (centres undefined)
not fulfilled

Assess whether reported inhibition for CCOC(=O)CCC(NC(=O)c1ccc(CNc2nc3cc(C(F)(F)F)ccc3nc2C(=O)OCC)cc1)C(=O)OCC (centres undefined) sits at 10% or higher.
not fulfilled

Confirm if inhibition reported for the compound "Cc1ccc(OCC(=O)Nc2ccc(C(=O)O)cc2NC(=O)COc2ccc(C)c(C)c2)cc1C" is 10% or above.
not fulfilled

In plain terms: is recorded inhibition at least 10% for "COc1cccc(CNC(=O)CN(C)S(=O)(=O)c2ccc3c(c2)c(=O)n(C)c(=O)n3C)c1" ?
not fulfilled

I'd appreciate it if you could say whether O=C(NC12CC3CC(CC(C3)C1)C2)N1CCCC(CO)C1 (centres undefined) has inhibition at least equal to 10%.
not fulfilled

Does the reported inhibition for "COc1ccccc1C(=O)COC(=O)COc1ccc(C#N)cc1" fall at or above the 10% mark?
fulfilled

Identify whether the reported inhibition of the following compound is 10% or greater: COc1ccc(C2CC(c3cccs3)=NN2C(=O)CSc2nnc(N)s2)cc1OC (centres undefined)
not fulfilled

Could you verify whether the entry Cc1ccc(S(=O)(=O)NC2(C(F)(F)F)NC(=O)N(CCc3ccccc3)C2=O)cc1 (centres undefined) shows inhibition of no less than 10%?
fulfilled
